biological target: T1, monomeric human CSF1R ectodomain protein (human, UniProt P07333 20-517); assay: SPR Biacore, IgG captured, monomeric CSF1R analyte
T1 construct: also called biotinylated monomeric human CSF1R
measured.attribute: kon (M⁻¹ s⁻¹)
Record the value in M⁻¹ s⁻¹, omitting the unit from your answer.

Field: example entries. Status: answers known.
binder="MH6 (antibody, V domains shown, Designer clone, human IgG4(S228P)/Ckappa IgG) VH: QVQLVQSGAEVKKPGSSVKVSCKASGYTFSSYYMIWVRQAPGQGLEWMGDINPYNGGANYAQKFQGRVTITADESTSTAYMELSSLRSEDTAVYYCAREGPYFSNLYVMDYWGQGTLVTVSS VL: EIVLTQSPATLSLSPGERATLSCRASQSVSYEGENYLAWYQQKPGQAPRLLIYAASNRATGIPARFSGSGSGTDFTLTISSLEPEDFAVYYCQLSNQDLLTFGGGTKVEIK" measured_attribute=kon value=1.3e+06
binder="29D10 (antibody, human IgG4, V domains shown, Library-derived clone, tested as human IgG4(S228P)/Ckappa IgG; framework residue limits counted on the grafts) VH: QVQLVQSGAEVKKPGSSVKVSCKASGYTFTSYYMIWVRQAPGQGLEWMGDINPYNGGANFAQKFQGRVTITADESTSTAYMELSSLRSEDTAVYYCAREGPYFSNLYVMDYWGQGTLVTVSS VL: EIVLTQSPATLSLSPGERATLSCRASQSVSYEGENYLNWYQQKPGQAPRLLIYAASNRATGIPARFSGSGSGTDFTLTISSLEPEDFAVYYCQLSNEDLLTFGGGTKVEIK" measured_attribute=kon value=1.9e+06
binder="26B07 (antibody, human IgG4, V domains shown, Library-derived clone, tested as human IgG4(S228P)/Ckappa IgG; framework residue limits counted on the grafts) VH: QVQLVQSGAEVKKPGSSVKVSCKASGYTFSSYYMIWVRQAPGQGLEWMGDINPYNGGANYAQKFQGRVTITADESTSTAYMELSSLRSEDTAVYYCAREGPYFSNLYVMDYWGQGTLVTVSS VL: EIVLTQSPATLSLSPGERATLSCRASQSVEYQGDNYLNWYQQKPGQAPRLLIYAASNRATGIPARFSGSGSGTDFTLTISSLEPEDFAVYYCQLSNEDLLTFGGGTKVEIK" measured_attribute=kon value=1.5e+06
binder="30D02 (antibody, human IgG4, V domains shown, Library-derived clone, tested as human IgG4(S228P)/Ckappa IgG; framework residue limits counted on the grafts) VH: QVQLVQSGAEVKKPGSSVKVSCKASGYTFSSYYMIWVRQAPGQGLEWMGDINPYNGGTTYAQKFQGRVTITADESTSTAYMELSSLRSEDTAVYYCAREGPYFSNLYVMDYWGQGTLVTVSS VL: EIVLTQSPATLSLSPGERATLSCRASQSVEYQGENYLNWYQQKPGQAPRLLIYAASNRATGIPARFSGSGSGTDFTLTISSLEPEDFAVYYCQLSNQDLLTFGGGTKVEIK" measured_attribute=kon value=1e+06
binder="murine anti-CSF1R antibody 0301 (mu0301), v-domains in human IgG4(S228P) format (antibody, V domains shown) VH: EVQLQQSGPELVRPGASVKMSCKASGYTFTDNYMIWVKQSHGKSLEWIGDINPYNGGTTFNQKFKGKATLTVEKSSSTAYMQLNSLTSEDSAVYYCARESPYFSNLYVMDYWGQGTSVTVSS VL: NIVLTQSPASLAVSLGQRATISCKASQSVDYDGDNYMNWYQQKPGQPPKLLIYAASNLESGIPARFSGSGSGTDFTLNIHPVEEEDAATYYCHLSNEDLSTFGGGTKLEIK" measured_attribute=kon value=2.9e+06
binder="29A03 (antibody, human IgG4, V domains shown, Library-derived clone, tested as human IgG4(S228P)/Ckappa IgG; framework residue limits counted on the grafts) VH: QVQLVQSGAEVKKPGSSVKVSCKASGYTFSSNYMIWVRQAPGQGLEWMGDINPYNGGATYNQKFQGRVTITADESTSTAYMELSSLRSEDTAVYYCAREPPYFSNLYVMDYWGQGTLVTVSS VL: EIVLTQSPATLSLSPGERATLSCRASQSVEYEGENYLNWYQQKPGQAPRLLIYAASNRATGIPARFSGSGSGTDFTLTISSLEPEDFAVYYCQLSNQDLLTFGGGTKVEIK" measured_attribute=kon value=1.6e+06

Return reported kon. Input binder: humanized anti-CSF1R antibody 0301 (hu0301) (antibody, human IgG4, V domains shown, also called mAb-1) VH: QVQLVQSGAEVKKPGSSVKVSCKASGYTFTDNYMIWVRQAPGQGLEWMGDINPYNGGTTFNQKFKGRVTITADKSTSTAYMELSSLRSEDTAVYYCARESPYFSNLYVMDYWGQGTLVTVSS VL: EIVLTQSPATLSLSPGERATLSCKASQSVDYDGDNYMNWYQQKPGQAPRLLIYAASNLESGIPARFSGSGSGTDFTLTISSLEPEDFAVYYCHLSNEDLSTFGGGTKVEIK
2.3e+06

Supply kon value. Item: 29B07 (antibody, human IgG4, V domains shown, Library-derived clone, tested as human IgG4(S228P)/Ckappa IgG; framework residue limits counted on the grafts) VH: QVQLVQSGAEVKKPGSSVKVSCKASGYTFTSYYIIWVRQAPGQGLEWMGDINPYNGGATYAQKFQGRVTITADESTSTAYMELSSLRSEDTAVYYCAREPPYFSNLYVMDYWGQGTLVTVSS VL: EIVLTQSPATLSLSPGERATLSCRASQSVEYEGDNYLNWYQQKPGQAPRLLIYAASNRATGIPARFSGSGSGTDFTLTISSLEPEDFAVYYCQLSNQDLLTFGGGTKVEIK
1.5e+06
